src = ChEMBL document CHEMBL4390694

Experiment: Metabolic stability in mouse liver microsomes assessed as half life
Assay type: ADME, Microsome
Below, each entry is listed alongside its reported half-life.

chemical_smiles	measurement_unit	relation_symbol	half-life
CNC(=O)c1c(-c2ccc(O)cc2)oc2ccc(O)c(CN3CCCCC3)c12	min	>	60
CCOC(=O)c1c(-c2ccc(OC)cc2)oc2ccc(OCCCCCCN3C(=O)C(=O)c4cc(F)ccc43)cc12	min	=	31.6

###

Below, each entry is listed alongside its reported selectivity ratio.
Experiment: Selectivity index, ratio of CC50 for cytotoxicity against African green monkey Vero cells to MIC for antimycobacterial activity against drug-susceptible Mycobacterium tuberculosis H37Rv
Format: toxicity, cell-based
Conditions: read-out: Selectivity Index

chemical_smiles	relation_symbol	selectivity ratio
CCOC(=O)c1c(-c2ccc(F)cc2)oc2ccc(OCCCCCCN3C(=O)C(=O)c4cc(F)ccc43)cc12	=	2048
CCOC(=O)c1c(-c2ccc(OC)cc2)oc2ccc(OCCCCCCN3C(=O)C(=O)c4cc(F)ccc43)cc12	=	1024
CNC(=O)c1c(-c2ccc(O)cc2)oc2ccc(O)c(CN3CCCCC3)c12	>	16400
CCOC(=O)c1c(-c2ccc(OC)cc2)oc2ccc(OCCCCN3C(=O)C(=O)c4cc(OC)ccc43)cc12	=	32
CCOC(=O)c1c(-c2ccc(OC)cc2)oc2ccc(OCCCCN3C(=O)C(=O)c4ccccc43)cc12	>	2048
CCOC(=O)c1c(-c2ccc(OC)cc2)oc2ccc(OCCCN3C(=O)C(=O)c4ccccc43)cc12	=	64
CCOC(=O)c1c(-c2ccc(OC)cc2)oc2ccc(OCCCCCCN3C(=O)C(=O)c4ccccc43)cc12	=	1024

###

Below, each entry is listed alongside its reported CC50 at 72 h.
Assay: Cytotoxicity against African green monkey Vero cells assessed as decrease in cell viability after 72 hrs by MTT assay
Assay type: cell-based
Conditions: chlorocebus sabaeus

chemical_smiles	relation_symbol	CC50 at 72 h, µM
CCOC(=O)c1c(-c2ccc(OC)cc2)oc2ccc(OCCCCN3C(=O)C(=O)c4ccccc43)cc12	>	1020
CNC(=O)c1c(-c2ccc(O)cc2)oc2ccc(O)c(CN3CCCCC3)c12	>	1020
CCOC(=O)c1c(-c2ccc(F)cc2)oc2ccc(OCCCCCCN3C(=O)C(=O)c4cc(F)ccc43)cc12	=	512
CCOC(=O)c1c(-c2ccc(F)cc2)oc2ccc(OCCCN3C(=O)C(=O)c4ccccc43)cc12	=	256
CCOC(=O)c1c(-c2ccc(OC)cc2)oc2ccc(OCCCCCN3C(=O)C(=O)c4cc(F)ccc43)cc12	=	128
